experiment.notes: Single dose PK, mouse
Assay type: in vivo
condition.context: male, CD-1, plasma; Mouse 10 mg/kg; read-out: AUC0-48
reported.property: AUC(0-t) (ng·h/mL)
Return type: number; implicit unit ng·h/mL.

Requested read-out: AUC(0-t). Entry: "Cc1ccc(C2=CC(C)(C)Oc3ccc(-c4ccc(-c5ccc(C(=O)[O-])cc5)[nH]4)cc32)cc1.[Na+]"
6580

###

target.under.test: human Ether-á-go-go related gene (hERG) channel (Homo sapiens)
experiment.notes: in vitro
condition.context: read-out: hERG IC50; hERG-transfected HEK293 cells, patch clamp
pIC50: −log10 of the molar value.
reported.property: pIC50

Requested read-out: pIC50. Entry: Cc1ccc(C2=CC(C)(C)Oc3ccc(-c4ccc(-c5ccc(C(=O)[O-])cc5)[nH]4)cc32)cc1.[Na+] [Example 1]
< 4.52

###

target.under.test: human Ether-á-go-go related gene (hERG) channel (Homo sapiens, UniProt Q12809)
experiment.notes: cell-based
Experimental: The potential inhibitory effect on human Ether-á-go-go related gene (hERG) channel was evaluated using a manual patch-clamp system. A HEK293 cell line stably transfected with hERG gene was employed.
pIC50: −log10 of the molar value.
reported.property: pIC50

Requested read-out: pIC50. Entry: "Cc1ccc(C2=CC(C)(C)Oc3ccc(-c4ccc(-c5ccc(C(=O)[O-])cc5)[nH]4)cc32)cc1.[Na+]"
< 4.52

###

target.under.test: cannabinoid receptor 2 (CB2) (Homo sapiens)
Sequence (P34972 whole entry, species assumed): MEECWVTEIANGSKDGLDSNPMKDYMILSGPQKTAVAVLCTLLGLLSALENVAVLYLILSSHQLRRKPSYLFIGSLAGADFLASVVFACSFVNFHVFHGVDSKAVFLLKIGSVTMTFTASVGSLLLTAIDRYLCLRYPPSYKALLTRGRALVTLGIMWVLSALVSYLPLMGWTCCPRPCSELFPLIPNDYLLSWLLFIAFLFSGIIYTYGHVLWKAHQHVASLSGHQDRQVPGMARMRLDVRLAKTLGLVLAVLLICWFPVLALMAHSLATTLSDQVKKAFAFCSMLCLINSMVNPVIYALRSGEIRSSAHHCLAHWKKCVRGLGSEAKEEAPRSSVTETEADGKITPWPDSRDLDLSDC
experiment.notes: Off-target screening, CB2
reported.property: IC50 (µM)
Return type: number; implicit unit µM.

Item Cc1ccc(C2=CC(C)(C)Oc3ccc(-c4ccc(-c5ccc(C(=O)[O-])cc5)[nH]4)cc32)cc1.[Na+] [Example 1] with cannabinoid receptor 2 (CB2) (Homo sapiens) - IC50?
23.3

###

target.under.test: human Ether-á-go-go related gene (hERG) channel (Homo sapiens, UniProt Q12809)
experiment.notes: in vitro
condition.context: read-out: hERG IC50; hERG-transfected HEK293 cells
pIC50: −log10 of the molar value.
reported.property: pIC50

Requested read-out: pIC50. Entry: "Cc1ccc(C2=CC(C)(C)Oc3ccc(-c4ccc(-c5ccc(C(=O)[O-])cc5)[nH]4)cc32)cc1.[Na+]"
< 4.52

###

experiment.notes: Stability in rat hepatocytes
Type: in vitro ADME
condition.context: read-out: Half-life (T1/2) Hepatocytes (Phase I and Phase II metabolism) (converted)
reported.property: half-life (h)
Return type: number; implicit unit h.

Requested read-out: half-life. Entry: Cc1ccc(C2=CC(C)(C)Oc3ccc(-c4ccc(-c5ccc(C(=O)[O-])cc5)[nH]4)cc32)cc1.[Na+] [Example 1]
7.9

###

target.under.test: cyclooxygenase 2 (COX2) (Homo sapiens, UniProt P35354)
Sequence (P35354 18-604): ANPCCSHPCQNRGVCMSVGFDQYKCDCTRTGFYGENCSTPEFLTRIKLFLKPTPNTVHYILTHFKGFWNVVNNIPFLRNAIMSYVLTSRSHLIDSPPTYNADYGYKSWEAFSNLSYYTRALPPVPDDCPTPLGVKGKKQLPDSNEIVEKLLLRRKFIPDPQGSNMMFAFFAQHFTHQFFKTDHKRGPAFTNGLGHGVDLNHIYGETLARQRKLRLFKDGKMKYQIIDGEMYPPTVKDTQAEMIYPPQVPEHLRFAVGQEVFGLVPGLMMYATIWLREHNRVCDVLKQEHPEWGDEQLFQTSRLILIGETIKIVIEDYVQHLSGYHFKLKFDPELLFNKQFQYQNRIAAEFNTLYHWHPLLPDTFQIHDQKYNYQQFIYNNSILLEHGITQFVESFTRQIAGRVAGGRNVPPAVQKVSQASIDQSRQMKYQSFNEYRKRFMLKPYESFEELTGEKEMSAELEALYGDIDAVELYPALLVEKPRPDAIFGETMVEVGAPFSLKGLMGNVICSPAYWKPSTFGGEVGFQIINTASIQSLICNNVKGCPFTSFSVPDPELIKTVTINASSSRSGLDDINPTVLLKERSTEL
reported.property: IC50 (µM)
Return type: number; implicit unit µM.

Item Cc1ccc(C2=CC(C)(C)Oc3ccc(-c4ccc(-c5ccc(C(=O)[O-])cc5)[nH]4)cc32)cc1.[Na+] [Example 1] with cyclooxygenase 2 (COX2) (Homo sapiens, UniProt P35354) - IC50?
8.51

###

Reported pIC50 values are given for each entry in this list.
target.under.test: RARβ (Homo sapiens)
Sequence (P10826 whole entry, species assumed): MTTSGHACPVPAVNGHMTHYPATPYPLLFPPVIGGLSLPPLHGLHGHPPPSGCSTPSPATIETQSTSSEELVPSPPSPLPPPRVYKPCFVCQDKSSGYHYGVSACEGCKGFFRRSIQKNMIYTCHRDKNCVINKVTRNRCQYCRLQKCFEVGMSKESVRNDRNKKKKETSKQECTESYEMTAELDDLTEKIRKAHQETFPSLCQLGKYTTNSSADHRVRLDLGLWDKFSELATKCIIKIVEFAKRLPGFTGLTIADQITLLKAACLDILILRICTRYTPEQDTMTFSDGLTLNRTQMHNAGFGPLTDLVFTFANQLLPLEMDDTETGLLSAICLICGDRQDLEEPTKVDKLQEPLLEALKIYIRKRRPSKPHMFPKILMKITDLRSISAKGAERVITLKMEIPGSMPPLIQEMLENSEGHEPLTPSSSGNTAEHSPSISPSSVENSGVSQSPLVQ
experiment.notes: Transactivation (luciferase) antagonist assay, RARβ
condition.context: vs EC80 (8 nM) ATRA, luciferase readout; read-out: RARβ Antagonism IC50
Procedure: Control wells containing cells without added agonist defined the background signal values. […] Cell suspension (30 μL) was added to each well and the assay plate was incubated overnight in a 5% CO2 incubator at 37° C. […] Luminescence was quantified using an EnSpire plate reader (PerkinElmer, Waltham, MA). IC50 values were determined by fitting dose response data using the four-parameter logistic equation in GraphPad Prism 7.0.
pIC50: −log10 of the molar value.

In the examples that follow, each entry is paired with its recorded pIC50.
input.smiles: Cc1ccc(C2=CC(C)(C)Oc3ccc(-c4ccc(-c5ccc(C(=O)O)c(O)c5)[nH]4)cc32)cc1
target.under.test: RARβ (Homo sapiens)
result: < 5.52

input.smiles: Cc1ccc(C2=CC(C)(C)Oc3ccc(-c4ccc(-c5ccc(C(=O)O)c(C)c5)[nH]4)cc32)cc1
target.under.test: RARβ (Homo sapiens)
result: < 5.52

Continue with the next molecule.
Requested read-out: pIC50. Entry: "CC1(C)C=C(c2ccccc2)c2cc(-c3ccc(-c4ccc(C(=O)O)cc4)[nH]3)ccc2O1"
< 5.48

###

experiment.notes: Single dose toxicity, dog
condition.context: Beagle, in vivo, Maximum tolerated dose (MTD), Beagle dogs, highest dose level tested
reported.property: MTD

Requested read-out: MTD. Entry: Cc1ccc(C2=CC(C)(C)Oc3ccc(-c4ccc(-c5ccc(C(=O)[O-])cc5)[nH]4)cc32)cc1.[Na+] [Example 1]
> 500 mg/kg

###

experiment.notes: in vitro
condition.context: human, microsomes
reported.property: CLint scaled

Requested read-out: CLint scaled. Entry: Cc1ccc(C2=CC(C)(C)Oc3ccc(-c4ccc(-c5ccc(C(=O)[O-])cc5)[nH]4)cc32)cc1.[Na+] [Example 1]
3.05 mL/min/kg

###

experiment.notes: Solubility in saline and 50% carbitol
Type: physicochemical
condition.context: saline, saline or isotonic, saline; read-out: Solubility (saline)
reported.property: solubility (µg/mL)
Return type: number; implicit unit µg/mL.

Requested read-out: solubility. Entry: Cc1ccc(C2=CC(C)(C)Oc3ccc(-c4ccc(-c5ccc(C(=O)[O-])cc5)[nH]4)cc32)cc1.[Na+] [Example 1]
2000

###

experiment.notes: Single dose PK, mouse
Assay type: in vivo
condition.context: male, CD-1, plasma; Mouse 10 mg/kg, single dose
reported.property: AUC(0-inf) (ng·h/mL)
Return type: number; implicit unit ng·h/mL.

Requested read-out: AUC(0-inf). Entry: "Cc1ccc(C2=CC(C)(C)Oc3ccc(-c4ccc(-c5ccc(C(=O)[O-])cc5)[nH]4)cc32)cc1.[Na+]"
6680

###

target.under.test: UniProt:Q12809
experiment.notes: in vitro
condition.context: human, % of hERG inhibition Cell 2, 3.33 μM
reported.property: inhibition at 3.33 µM (%)
Return type: number; implicit unit %.

Item Cc1ccc(C2=CC(C)(C)Oc3ccc(-c4ccc(-c5ccc(C(=O)[O-])cc5)[nH]4)cc32)cc1.[Na+] [Example 1] with UniProt:Q12809 - inhibition at 3.33 µM?
16.4

###

target.under.test: hERG (Homo sapiens)
Sequence (Q12809 whole entry): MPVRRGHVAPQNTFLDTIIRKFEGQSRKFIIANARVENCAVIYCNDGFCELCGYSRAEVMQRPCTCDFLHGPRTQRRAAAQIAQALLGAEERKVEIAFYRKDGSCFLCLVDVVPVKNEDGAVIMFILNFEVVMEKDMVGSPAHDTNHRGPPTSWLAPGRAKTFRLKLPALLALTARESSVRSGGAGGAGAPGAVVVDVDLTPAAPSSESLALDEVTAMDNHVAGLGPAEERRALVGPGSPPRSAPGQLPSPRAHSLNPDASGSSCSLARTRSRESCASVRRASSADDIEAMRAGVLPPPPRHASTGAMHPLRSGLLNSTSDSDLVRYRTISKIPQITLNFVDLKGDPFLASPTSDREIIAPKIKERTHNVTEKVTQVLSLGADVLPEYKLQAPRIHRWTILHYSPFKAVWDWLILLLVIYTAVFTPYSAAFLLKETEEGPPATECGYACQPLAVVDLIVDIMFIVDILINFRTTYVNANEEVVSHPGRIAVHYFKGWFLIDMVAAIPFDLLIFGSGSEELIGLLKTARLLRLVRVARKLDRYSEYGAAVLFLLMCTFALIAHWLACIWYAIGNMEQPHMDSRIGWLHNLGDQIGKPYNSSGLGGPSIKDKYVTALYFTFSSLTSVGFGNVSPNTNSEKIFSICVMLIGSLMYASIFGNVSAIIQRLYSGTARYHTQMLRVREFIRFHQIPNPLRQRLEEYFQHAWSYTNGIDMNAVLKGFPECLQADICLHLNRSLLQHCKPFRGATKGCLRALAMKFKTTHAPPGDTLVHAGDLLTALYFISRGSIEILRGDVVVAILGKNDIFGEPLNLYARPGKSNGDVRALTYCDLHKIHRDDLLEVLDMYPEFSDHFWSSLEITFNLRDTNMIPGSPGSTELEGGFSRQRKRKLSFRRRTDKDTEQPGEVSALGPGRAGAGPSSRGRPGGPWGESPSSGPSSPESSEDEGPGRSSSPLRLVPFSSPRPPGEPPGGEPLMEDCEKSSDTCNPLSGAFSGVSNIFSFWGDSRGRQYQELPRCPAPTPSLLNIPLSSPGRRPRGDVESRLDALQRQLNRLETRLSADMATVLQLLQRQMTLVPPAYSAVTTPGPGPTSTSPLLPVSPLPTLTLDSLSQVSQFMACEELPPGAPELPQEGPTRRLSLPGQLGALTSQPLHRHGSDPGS
experiment.notes: in vitro
condition.context: human, % of hERG inhibition Cell 1, 30.00 μM
reported.property: inhibition at 30 µM (%)
Return type: number; implicit unit %.

Requested read-out: inhibition at 30 µM. Entry: "Cc1ccc(C2=CC(C)(C)Oc3ccc(-c4ccc(-c5ccc(C(=O)[O-])cc5)[nH]4)cc32)cc1.[Na+]"
35.9

###

experiment.notes: Single dose PK, marmoset
Type: in vivo
condition.context: male, monkey, plasma, Marmoset 5 mg/kg
reported.property: AUC(0-inf) (ng·h/mL)
Return type: number; implicit unit ng·h/mL.

Requested read-out: AUC(0-inf). Entry: Cc1ccc(C2=CC(C)(C)Oc3ccc(-c4ccc(-c5ccc(C(=O)[O-])cc5)[nH]4)cc32)cc1.[Na+] [Example 1]
6920

###

experiment.notes: in vitro
condition.context: mouse hepatocytes
reported.property: CLint scaled (mL/min/kg)
Return type: number; implicit unit mL/min/kg.

Requested read-out: CLint scaled. Entry: "Cc1ccc(C2=CC(C)(C)Oc3ccc(-c4ccc(-c5ccc(C(=O)[O-])cc5)[nH]4)cc32)cc1.[Na+]"
56.5

###

experiment.notes: Stability in rat liver microsomes
Assay type: in vitro ADME
condition.context: read-out: Half-life (T1/2) Liver microsomes (Phase I metabolism)
reported.property: half-life

Requested read-out: half-life. Entry: "Cc1ccc(C2=CC(C)(C)Oc3ccc(-c4ccc(-c5ccc(C(=O)[O-])cc5)[nH]4)cc32)cc1.[Na+]"
> 23.1 h
